self-cleavage listing for selected variants.
B1: LINE1-full (parent)
chain: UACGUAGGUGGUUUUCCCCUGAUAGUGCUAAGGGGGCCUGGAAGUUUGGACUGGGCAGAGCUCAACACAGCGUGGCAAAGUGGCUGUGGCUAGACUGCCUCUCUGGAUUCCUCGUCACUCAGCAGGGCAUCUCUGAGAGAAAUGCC

Variants of: B1
Assay: self-cleavage, relative activity (ratio to wild type); higher = more cleavage; in vitro, sequencing; the parent is a self-cleaving ribozyme

| CHANGE | self-cleavage |
| --- | --- |
| G86A A136U | 0.06 |
| U15C U104A | 1.05 |
| U39A G135A | 1.57 |
| A30G A50G | 0.64 |
| U102C A142U | 1.26 |
| A67U A121C | 0.2 |
| U112C A124G | 0.64 |
| U14C G25U | 1.26 |
| G54A A129G | 0.76 |
| U62C U85A | 0.03 |
| A67G A69G | 0.31 |
| U12C U85C | 0.12 |
| U100A G137A | 0.85 |
| G32A U119A | 1.1 |
| A43G A140U | 1.19 |
| A6U A24G | 1.13 |
| U39A U52A | 1.4 |
| G11A G49U | 1.35 |
| G89A U112A | 0.05 |
| A121G G144A | 1.91 |
| A24U | 1.25 |
| U52G U73A | 1.74 |

# credit: the RNAGym collection of RNA variant scans (doi:10.7554/elife.90254)
